B1: library; a variant is named by its letters at N, in order (parent)
chain: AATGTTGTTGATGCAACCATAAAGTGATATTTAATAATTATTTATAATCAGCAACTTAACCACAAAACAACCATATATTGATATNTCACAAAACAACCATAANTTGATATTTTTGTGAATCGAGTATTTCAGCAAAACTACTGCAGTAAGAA

Variants of: B1
method summary: relative integration efficiency (T-RL orientation) vs wild-type transposon end (log2 (normalized fold change)); transposon end mutated: left end; higher = more efficient transposition
conditions: with VchCAST RNA-guided transposition machinery (E. coli BL21(DE3) host, lacZ target)
The following ranges of relative integration efficiency (log2) define the classes used here: zone 1 (below -0.7), zone 2 (-0.7 to below -0.04), zone 3 (-0.04 or more)

mutant_label="CG A95T A96T C97G C98G" assigned_label="zone 1"
mutant_label="TA A22T G24T T31C A33C T76A T78A T84A C87A A96C T110A T113A" assigned_label="zone 2"
mutant_label="CG T57A A58T A59T C60G" assigned_label="zone 3"
mutant_label="CG T20A" assigned_label="zone 2"
mutant_label="CC A22T A23T T76A A77T A102T" assigned_label="zone 2"
mutant_label="CG A70T C71G" assigned_label="zone 1"
mutant_label="GG T86A C87G A88T" assigned_label="zone 2"
mutant_label="CG A54G" assigned_label="zone 3"
mutant_label="CG G51T C52A" assigned_label="zone 3"
mutant_label="CG T12G G13T" assigned_label="zone 2"
mutant_label="CG A101T A102T" assigned_label="zone 2"
mutant_label="CG A118C A119C" assigned_label="zone 3"
mutant_label="CG A70C C71A" assigned_label="zone 1"
mutant_label="CG A118G" assigned_label="zone 2"
mutant_label="CG T45A A46T" assigned_label="zone 3"
mutant_label="CG A69T" assigned_label="zone 2"
mutant_label="CG G24T T25G G26T A27C" assigned_label="zone 1"
mutant_label="CG G80C A81T T82A A83T" assigned_label="zone 1"
mutant_label="CG T39A A40T T41A T42A" assigned_label="zone 3"
mutant_label="CG A2T T3A G4C T5A" assigned_label="zone 3"
mutant_label="TA G24A T30A T76A T78A T84A C87A A96C T112G T113C" assigned_label="zone 3"
mutant_label="CG A34C T35C A36G T38C A40G T42C A44G T45C A46C A53C A62G A65G A66C" assigned_label="zone 1"
mutant_label=AG assigned_label="zone 3"
mutant_label="CG A99T T100A A101T A102T" assigned_label="zone 1"
mutant_label="CG T12A G13A" assigned_label="zone 2"
mutant_label="CG T8A" assigned_label="zone 2"
mutant_label="TA A22T G24T T31C A33C A70C T76A T86G T104A T110A T113A" assigned_label="zone 1"
mutant_label="CG A73C T74G" assigned_label="zone 1"
mutant_label="CG A40C T41G" assigned_label="zone 3"
mutant_label="CG T38C A40G T42A A44T A47T T48A C49T G51C C52A A53G A54T C55T T56G" assigned_label="zone 1"
mutant_label="TA A16C G24T T30A T76A A77G C87T T104G T113A" assigned_label="zone 2"
mutant_label="AG T31G T111G" assigned_label="zone 1"
mutant_label="TA A16C G24T T30A T76A T78G C87A T104A T110A T113A" assigned_label="zone 2"
mutant_label="CG T113C" assigned_label="zone 3"
mutant_label="TA G24A T30A T76A T78A T84A C87A T104A T110A T113A" assigned_label="zone 3"
mutant_label="TA A16C G24T T30A T76A T78A T84A C87A A96C T110A T113A" assigned_label="zone 2"

Just for reference, the supplement of paper PMC10201428 is where these values come from.
